B1: Protein piccolo, residues 1058 to 1114; numbered along this chain, Q9Y6V0 (parent)
chain: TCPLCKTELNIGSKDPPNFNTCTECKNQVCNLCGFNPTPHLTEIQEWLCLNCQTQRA

Variants of: B1
Assay: abundance fitness (aPCA) (normalised: wild type 0, dead -1); higher = more abundant; growth selection in yeast, the domain comes from the species named
Details: Homo sapiens
variants and their reported abundance fitness
Simply state the number, no unit and no words.

Take a look at these entries with their results.
1. C5Q	-0.689
2. C49I	-1.05
3. C22D	-0.817
4. C33F	-0.92
5. L4R	-0.054

**Q:** # get_value(readout='abundance fitness', item= T23Y )
**A:** 0.024

**Q:** And then Q45V , what is it?
**A:** 0.046

**Q:** And then T54F , what is it?
**A:** -0.79

**Q:** And then L4Y , what is it?
**A:** -0.088

**Q:** And then I44S , what is it?
**A:** 0.045

**Q:** And then E43D , what is it?
**A:** -0.096

**Q:** And then P39F , what is it?
**A:** 0.025
